Provenance of the data: patent US20240317857A1

Target: T1, His-labeled human CD3E (human, UniProt P07766 23-126)
T1 construct: also called human CD3E antigen; antigen CD3E; not shown: His label
T1 sequence (P07766 23-126): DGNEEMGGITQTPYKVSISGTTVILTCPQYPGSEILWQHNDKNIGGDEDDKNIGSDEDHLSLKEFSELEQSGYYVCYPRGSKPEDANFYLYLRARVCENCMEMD
Assay: BLI (Octet), method of Example 3: His-labeled human CD3E on Ni-NTA sensors
Below, each of the binders is paired with its reported log10(kon) value.
// units: M⁻¹ s⁻¹ (pre-log); metric: kon; scale: log10

log10(kon) for humanized antibody AB617 (antibody, V domains shown) VH: EVQLLESGGGLVQPGGSLKLSCAASGFTFNDYAMNWVRQAPGKGLEWVGRIRSKINNYATYYADSVKDRFTISRDDSKNTAYLQMNNLKTEDTAMYYCVRHDNFYGSTYSWFADWGQGTLVTVSS VL: ELVVTQEPSLTVSPGGTVTLTCRSSTGVVTTSNYANWVQEKPDHLFTGLIGATNYRAPGTPARFSGSLLGGKAALTLSGVQPEDEAIYFCVLWYSNHWVFGGGTKLTVL is 5.40

log10(kon) for humanized antibody AB623 (antibody, V domains shown) VH: EVQLLESGGGLVQPGGSLKLSCAASGFTFNTYAMNWVRQAPGKGLEWVGRIRSKINNYATYYADSVKDRFTISRDDSKNTAYLQMNNLKTEDTAMYYCVRHDNHYGSTYSWFADWGQGTLVTVSS VL: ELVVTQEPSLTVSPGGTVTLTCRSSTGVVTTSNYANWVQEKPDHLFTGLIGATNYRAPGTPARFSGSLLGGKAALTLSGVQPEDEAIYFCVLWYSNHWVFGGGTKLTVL is 4.71

log10(kon) for humanized antibody AB627 (antibody, V domains shown) VH: EVQLLESGGGLVQPGGSLKLSCAASGFTFNTYAMNWVRQAPGKGLEWVGRIRSKINNYATYYADSVKDRFTISRDDSKNTAYLQMNNLKTEDTAMYYCVRHDNFYGSTYSWHADWGQGTLVTVSS VL: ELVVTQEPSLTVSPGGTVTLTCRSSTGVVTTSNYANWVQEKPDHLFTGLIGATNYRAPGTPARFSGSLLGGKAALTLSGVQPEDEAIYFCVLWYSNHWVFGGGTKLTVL is 3.86

log10(kon) for humanized antibody AB619 (antibody, V domains shown) VH: EVQLLESGGGLVQPGGSLKLSCAASGFTFNTYAMNWVRQAPGKGLEWVGRIRSKINNYATYYADSVKDRFTISRDDSKNTAYLQMNNLKTEDTAMYYCVRHDNFYGSTYSWFADWGQGTLVTVSS VL: ELVVTQEPSLTVSPGGTVTLTCRSSTGVVTTSNYANWVQEKPDHLFTGLIGATDYRAPGTPARFSGSLLGGKAALTLSGVQPEDEAIYFCVLWYSNHWVFGGGTKLTVL is 5.44

log10(kon) for humanized antibody AB624 (antibody, V domains shown) VH: EVQLLESGGGLVQPGGSLKLSCAASGFTFNTYAMNWVRQAPGKGLEWVGRIRSKINNYATYYADSVKDRFTISRDDSKNTAYLQMNNLKTEDTAMYYCVRHDNFHGSTYSWFADWGQGTLVTVSS VL: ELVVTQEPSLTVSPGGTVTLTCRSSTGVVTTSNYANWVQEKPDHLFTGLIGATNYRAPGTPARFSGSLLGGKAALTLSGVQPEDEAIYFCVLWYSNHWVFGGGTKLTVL is 5.47

log10(kon) for humanized antibody AB615 (antibody, V domains shown) VH: EVQLLESGGGLVQPGGSLKLSCAASGFDFNTYAMNWVRQAPGKGLEWVGRIRSKINNYATYYADSVKDRFTISRDDSKNTAYLQMNNLKTEDTAMYYCVRHDNFYGSTYSWFADWGQGTLVTVSS VL: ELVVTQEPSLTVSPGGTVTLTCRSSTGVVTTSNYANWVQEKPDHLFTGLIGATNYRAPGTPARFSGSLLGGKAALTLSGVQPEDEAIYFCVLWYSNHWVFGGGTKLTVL is 5.40
